method.description: AUC (0 to infinity) in Swiss outbred mouse plasma at 10 mg/kg, po
Assay type: ADME, organism-based
Parameters: time infinity, dose 10 mg/kg, route oral
Below: a set of entries, each annotated with reported AUC(0-inf).
Use µM·h as the unit, but write only the number.

compound: CCC(F)(F)c1nc2nc(C)cc(Nc3ccc(C(F)(F)F)cc3)n2n1
measured.attribute: AUC(0-inf)
reading: 10.9
//
compound: Cc1cc(Nc2ccc(C(F)(F)F)cc2)n2nc(C(C)(F)F)nc2n1
measured.attribute: AUC(0-inf)
reading: 70.1

Now consider the entry below.
Give AUC(0-inf) for Cc1cc(Nc2ccc(S(F)(F)(F)(F)F)cc2)n2nc(C(C)(F)F)nc2n1 [DSM-265]
22.6

---

method.description: Cmax in human RBC engrafted NOD-SCID IL-2Rgamma-null mouse infected with Plasmodium falciparum 3D7 0087/N9 at 5.7 mg/kg, po
Type: ADME, organism-based
Set-up: dose 5.7 mg/kg, route oral
measurement.conditions: in vivo
measured.attribute: Cmax (µM)
Give the number; µM is assumed, so skip it.

Give the measured Cmax for Cc1cc(Nc2ccc(C(F)(F)F)cc2)n2nc(C(C)(F)F)nc2n1
6.3

---

method.description: Aqueous solubility of the compound at pH 6.5
Type: physicochemical
If the reported solubility equals or exceeds 8 µM, assign y. If not, assign n.

Check out these entries, answers already filled in.
item.smiles: CSc1nc2nc(C)cc(Nc3ccc(C(F)(F)F)cc3)n2n1
label.value: y
//
item.smiles: CCOc1nc2nc(C)cc(Nc3ccc(S(F)(F)(F)(F)F)cc3)n2n1
label.value: n
//
item.smiles: Cc1cc(Nc2ccc(C(F)(F)F)cc2)n2nc(C3CC3)nc2n1
label.value: y

# bool: solubility of COCc1nc2nc(C)cc(Nc3ccc(S(F)(F)(F)(F)F)cc3)n2n1 >= 8 µM
y

Identify whether the reported solubility of the following compound is 8 µM or greater: Cc1cc(Nc2ccc(S(F)(F)(F)(F)F)cc2)n2nc(C3CC3)nc2n1
y

---

method.description: AUC (0 to infinity) in Sprague-Dawley rat at 2.1 mg/kg, po
Assay type: ADME, organism-based
Parameters: time infinity, dose 2.1 mg/kg, route oral
measurement.conditions: plasma
measured.attribute: AUC(0-inf)
Entry format: amount then unit.

State its AUC(0-inf) for this compound: Cc1cc(Nc2ccc(S(F)(F)(F)(F)F)cc2)n2nc(C(C)(F)F)nc2n1
15.5 µM·h

---

method.description: AUC (0 to infinity) in Sprague-Dawley rat at 18.8 mg/kg, po
Assay type: ADME, organism-based
Parameters: time infinity, dose 18.8 mg/kg, route oral
measurement.conditions: plasma
measured.attribute: AUC(0-inf) (µM·h)
Write the value in µM·h as a bare number.

Identify the reported AUC(0-inf) for the following entry. Cc1cc(Nc2ccc(S(F)(F)(F)(F)F)cc2)n2nc(C(C)(F)F)nc2n1
122

---

method.description: in vivo
measurement.conditions: NOD-SCID IL-2Rgamma-null, mouse, po, 10 mg/kg
measured.attribute: Tmax
Give the number first and the unit second.

Write down Tmax measured for item Cc1cc(Nc2cc(F)c(C(F)(F)F)c(F)c2)n2ncnc2n1
3.3 h

---

method.description: Cmax in Swiss outbred mouse at 0.4 mg/kg, po
Type: ADME, organism-based
Design: dose 0.4 mg/kg, route oral
measurement.conditions: in vivo
measured.attribute: Cmax (nM)
Give the number; nM is assumed, so skip it.

item.smiles: Cc1cc(Nc2ccc(C(F)(F)F)cc2)n2nc(C(C)(F)F)nc2n1
reading: 200

Now consider a different compound.
Specify reported Cmax for the compound shown: Cc1cc(Nc2ccc(S(F)(F)(F)(F)F)cc2)n2nc(C(C)(F)F)nc2n1
60

---

method.description: Cmax in Sprague-Dawley rat at 21.2 mg/kg, po
Type: ADME, organism-based
Design: dose 21.2 mg/kg, route oral
measurement.conditions: in vivo
measured.attribute: Cmax (µM)
Could you give me the number in µM? Just the number is fine.

Give Cmax for Cc1cc(Nc2ccc(C(F)(F)F)cc2)n2nc(C(C)(F)F)nc2n1
11.4

---

method.description: Cmax in Swiss outbred mouse at 10 mg/kg, po
Type: ADME, organism-based
Parameters: dose 10 mg/kg, route oral
measurement.conditions: in vivo
measured.attribute: Cmax (µM)
# value in µM; strip the unit string

Past entries and their recorded results:
item.smiles: Cc1cc(Nc2ccc(C(F)(F)F)cc2)n2nc(C(C)(F)F)nc2n1
measured.attribute: Cmax
reading: 9.86
//
item.smiles: CCC(F)(F)c1nc2nc(C)cc(Nc3ccc(C(F)(F)F)cc3)n2n1
measured.attribute: Cmax
reading: 3.5

Attention now turns to another entry.
Fill in Cmax for record Cc1cc(Nc2ccc(S(F)(F)(F)(F)F)cc2)n2nc(C(C)(F)F)nc2n1
3.1

---

method.description: Aqueous solubility of the compound at pH 6.5
Assay type: physicochemical
measured.attribute: solubility (µM)
Numeric answer only, unit µM assumed.

Use these answered entries as a reference point.
compound: CCc1nc2nc(C)cc(Nc3ccc(Cl)cc3)n2n1
solubility (µM): 170
//
compound: Cc1cc(Nc2ccc(S(F)(F)(F)(F)F)cc2)n2nc(C(F)(F)F)nc2n1
solubility (µM): 30
//
compound: Cc1cc(Nc2ccc(Cl)cc2)n2nc(C(C)C)nc2n1
solubility (µM): 83

Please look at this compound and report its solubility: CCC(F)(F)c1nc2nc(C)cc(Nc3ccc(S(F)(F)(F)(F)F)cc3)n2n1
15

For the compound CCc1nc2nc(C)cc(Nc3ccc(S(F)(F)(F)(F)F)cc3)n2n1 , report solubility.
34

Read off the recorded solubility for Cc1cc(Nc2cccc(Cl)c2)n2nc(C(C)(F)F)nc2n1
77

Please give the documented solubility of CCC(F)(F)c1nc2nc(C)cc(Nc3ccc(C(F)(F)F)cc3)n2n1
17

// fetch solubility given entry Cc1cc(Nc2ccc(Cl)cc2)n2nc(C(C)(F)F)nc2n1
77

Report measured solubility; entry is CCOc1nc2nc(C)cc(Nc3ccc(C(F)(F)F)cc3)n2n1
19

Tell me measured solubility for Cc1cc(Nc2ccc(S(F)(F)(F)(F)F)cc2)n2nc(C(C)(F)F)nc2n1 [DSM-265] please.
30

Return solubility for the following compound: Cc1cc(Nc2ccc(C(F)(F)F)cc2)n2nc(CCO)nc2n1
19

---

method.description: Terminal elimination half life in Sprague-Dawley rat at 0.9 mg/kg, iv
Type: ADME, organism-based
Design: dose 0.9 mg/kg, route intravenous
measurement.conditions: in vivo, read-out: beta t1/2 (converted)
measured.attribute: half-life (h)
Just the number please, in h, no unit attached.

Look up and report measured half-life for this entry: Cc1cc(Nc2ccc(S(F)(F)(F)(F)F)cc2)n2nc(C(C)(F)F)nc2n1 [DSM-265]
10.1

---

method.description: Terminal elimination half life in Sprague-Dawley rat at 2.6 mg/kg, iv
Type: ADME, organism-based
Design: dose 2.6 mg/kg, route intravenous
measurement.conditions: in vivo, read-out: beta t1/2 (converted)
measured.attribute: half-life (h)
Give the value, in units of h, as a plain number.

Give half-life for the following compound: Cc1cc(Nc2ccc(S(F)(F)(F)(F)F)cc2)n2nc(C(C)(F)F)nc2n1
12.6

---

The entries below come with measured PPB values attached.
System: Plasma
method.description: Plasma protein binding in human by chromatographic method
Assay type: ADME, cell-free
Please state the number and follow it with the unit.

GET PPB where system = Plasma and item = CSc1nc2nc(C)cc(Nc3ccc(S(F)(F)(F)(F)F)cc3)n2n1
97.7%

Quote PPB with test system Plasma for Cc1cc(Nc2ccc(S(F)(F)(F)(F)F)cc2)n2nc(C3CC3)nc2n1
97.7%

Look up and report PPB, with Plasma as system, for CCOc1nc2nc(C)cc(Nc3ccc(S(F)(F)(F)(F)F)cc3)n2n1
97.7%

Name the recorded PPB of Cc1cc(Nc2cccc(Cl)c2)n2nc(C(C)(F)F)nc2n1 , assay system Plasma.
88.2%

---

Catalogue of AUC(0-inf) readings, one per entry.
method.description: AUC (0 to infinity) in Swiss outbred mouse plasma at 20 mg/kg, po
Format: ADME, organism-based
Set-up: time infinity, dose 20 mg/kg, route oral
The answer is to be given in µM·h; state only the numeric part.

Known AUC(0-inf) results, listed for orientation:
item.smiles: CCOc1nc2nc(C)cc(Nc3ccc(S(F)(F)(F)(F)F)cc3)n2n1
AUC(0-inf) (µM·h): 10.1

item.smiles: CCOc1nc2nc(C)cc(Nc3ccc(C(F)(F)F)cc3)n2n1
AUC(0-inf) (µM·h): 20.7

Consider now this further compound.
Provide measured AUC(0-inf) value, entry: CCc1nc2nc(C)cc(Nc3ccc(C(F)(F)F)cc3)n2n1
27.1

---

method.description: Terminal elimination half life in Sprague-Dawley rat at 2.1 mg/kg, po
Type: ADME, organism-based
Set-up: dose 2.1 mg/kg, route oral
measurement.conditions: in vivo, read-out: beta t1/2 (converted)
measured.attribute: half-life (min)
Numeric only. Scale: min

For Cc1cc(Nc2ccc(S(F)(F)(F)(F)F)cc2)n2nc(C(C)(F)F)nc2n1 , write its half-life.
696
